Target chain: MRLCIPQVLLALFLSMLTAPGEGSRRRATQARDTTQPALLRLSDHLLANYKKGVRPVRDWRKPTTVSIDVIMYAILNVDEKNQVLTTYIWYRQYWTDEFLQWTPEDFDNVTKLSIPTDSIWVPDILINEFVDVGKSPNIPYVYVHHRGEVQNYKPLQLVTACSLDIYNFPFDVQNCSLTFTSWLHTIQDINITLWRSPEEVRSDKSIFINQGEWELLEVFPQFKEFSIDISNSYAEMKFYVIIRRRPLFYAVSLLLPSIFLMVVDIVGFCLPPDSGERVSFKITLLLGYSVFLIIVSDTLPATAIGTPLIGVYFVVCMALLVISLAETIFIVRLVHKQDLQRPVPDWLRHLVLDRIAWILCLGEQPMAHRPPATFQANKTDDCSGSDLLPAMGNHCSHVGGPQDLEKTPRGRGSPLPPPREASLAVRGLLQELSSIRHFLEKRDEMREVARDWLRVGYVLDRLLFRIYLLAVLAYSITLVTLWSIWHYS
property measured: Ki (µM)
Write it as a number; the unit µM goes unstated.

Exercise: I'd like to know its Ki. The compound in question is `COc1cc(NC(=O)C2CC2)c(Cl)cc1C(=O)N[C@H]1CCN(Cc2ccccc2)C1`
Solution: 4

----------
- System: Mus musculus
- test details: Compound was tested for inhibition of Apomorphine induced climbing in Mice on subcutaneous administration
- Type: functional
- test parameters: sc
property measured: ED50 (mg/kg)
Write it as a number; the unit mg/kg goes unstated.

{"item smiles": "COc1cc(NC(=O)C2CC2)c(Cl)cc1C(=O)N[C@H]1CCN(Cc2ccccc2)C1", "measured on": "Mus musculus", "result value": 0.32}

Exercise: Enter reported ED50 observed with Mus musculus for `COc1cc(NC(=O)C2CCCC2)c(Cl)cc1C(=O)N[C@H]1CCN(Cc2ccccc2)C1`
Solution: 0.28

Exercise: Now the same for `COc1cc(NC(=O)C2CC2)c(Cl)cc1C(=O)N[C@@H]1CCN(Cc2ccccc2)C1`
Solution: 0.45

Exercise: Now the same for `COc1cc(NC(=O)C2CCC2)c(Cl)cc1C(=O)N[C@H]1CCN(Cc2ccccc2)C1`
Solution: 0.14

----------
- System: Mus musculus
- test details: Compound was tested for inhibition of Apomorphine induced climbing in Mice on subcutaneous administration
- Type: functional
- test parameters: sc
Quick reference for ED50 among some compounds
Write it as a number; the unit mg/kg goes unstated.

Exercise: I'd like to know its ED50. The compound in question is CNc1cc(OC)c(C(=O)N[C@H]2CCN(Cc3ccccc3)[C@H]2C)cc1Cl [NEMONAPRIDE]
Solution: 0.012

Exercise: Now the same for `COc1cc(NC(=O)C2CC2)c(Cl)cc1C(=O)N[C@H]1CCN(C2CCCCC2)C1`
Solution: 1.4

Exercise: Now the same for `CCC(=O)Nc1cc(OC)c(C(=O)N[C@H]2CCN(Cc3ccccc3)C2)cc1Cl`
Solution: 0.31

----------
- measured on: D(3) dopamine receptor (Rattus norvegicus)
- Sequence (P19020 whole entry): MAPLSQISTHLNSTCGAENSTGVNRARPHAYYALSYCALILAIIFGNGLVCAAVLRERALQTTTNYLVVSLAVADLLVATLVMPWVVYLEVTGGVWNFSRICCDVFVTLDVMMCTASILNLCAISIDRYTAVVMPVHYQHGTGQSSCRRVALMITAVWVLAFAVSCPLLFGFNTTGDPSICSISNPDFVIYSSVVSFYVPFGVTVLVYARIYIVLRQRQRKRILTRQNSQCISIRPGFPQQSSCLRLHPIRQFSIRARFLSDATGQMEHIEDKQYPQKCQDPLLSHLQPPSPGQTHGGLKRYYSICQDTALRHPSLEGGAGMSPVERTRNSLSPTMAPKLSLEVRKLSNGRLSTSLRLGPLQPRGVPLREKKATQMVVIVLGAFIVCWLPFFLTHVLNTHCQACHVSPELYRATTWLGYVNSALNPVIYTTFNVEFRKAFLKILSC
Define the label as satisfied when Ki is strictly less than 4 nM and as not satisfied in all remaining cases.

Example entries begin here.
{"compound": "CNc1cc(OC)c(C(=O)N[C@H]2CCN(C3C4CCCC3CCC4)C2)cc1Cl (some centres undefined)", "measured on": "D(3) dopamine receptor (Rattus norvegicus)", "answer label": "satisfied"}
{"compound": "COc1cc(NC(=O)C2CC2)c(Cl)cc1C(=O)N[C@H]1CCN(CCc2ccccc2)C1", "measured on": "D(3) dopamine receptor (Rattus norvegicus)", "answer label": "not satisfied"}
{"compound": "C=CC(=O)Nc1cc(OC)c(C(=O)N[C@H]2CCN(Cc3ccccc3)C2)cc1Cl", "measured on": "D(3) dopamine receptor (Rattus norvegicus)", "answer label": "not satisfied"}
{"compound": "COc1cc(NC(=O)C2CC2)c(Cl)cc1C(=O)N[C@H]1CCN(C2C3CCCC2CCC3)C1 (some centres undefined)", "measured on": "D(3) dopamine receptor (Rattus norvegicus)", "answer label": "satisfied"}

Exercise: State whether 4 nM exceeds Ki recorded for `CCC(=O)Nc1cc(OC)c(C(=O)N[C@H]2CCN(Cc3ccccc3)C2)cc1Cl` .
Solution: not satisfied

Exercise: Now the same for `COc1cc(NC(=O)C2CC2)c(Cl)cc1C(=O)N[C@H]1CCN(CC2CCCCC2)C1`
Solution: satisfied

----------
Reported values: pKi for D(4) dopamine receptor (Homo sapiens), one per item.
Bear in mind: pKi is minus log10 of a mol/L concentration; give just that figure.

{"compound": "COc1cc(NC(=O)C2CC2)c(Cl)cc1C(=O)N[C@H]1CCN(CCc2ccccc2)C1", "result value": 8.47}
{"compound": "COc1cc(NC(=O)C2CCCC2)c(Cl)cc1C(=O)N[C@@H]1CCN(Cc2ccccc2)C1", "result value": 7.74}
{"compound": "COc1cc(NC(=O)C2CC2)c(Cl)cc1C(=O)N[C@H]1CCN(C2C3CC4CC(C3)CC2C4)C1 (stereo not given in full)", "result value": 8.36}
{"compound": "COc1cc(NC(=O)C2CC2)c(Cl)cc1C(=O)N[C@H]1CCN(C2C3CCCC2CCC3)C1 (stereo not given in full)", "result value": 8.42}
{"compound": "COc1cc(NC(=O)C(F)(F)F)c(Cl)cc1C(=O)N[C@H]1CCN(Cc2ccccc2)C1", "result value": 8.72}
{"compound": "COc1cc(NC(=O)C2CC2)c(Cl)cc1C(=O)N[C@H]1CCN(C2CCCCCC2)C1", "result value": 8.57}

Exercise: Enter reported pKi observed with D(4) dopamine receptor (Homo sapiens) for `COc1cc(NC(=O)C2CC2)c(Cl)cc1C(=O)N[C@H]1CCN(CC2CCCCC2)C1`
Sequence (P21917 whole entry): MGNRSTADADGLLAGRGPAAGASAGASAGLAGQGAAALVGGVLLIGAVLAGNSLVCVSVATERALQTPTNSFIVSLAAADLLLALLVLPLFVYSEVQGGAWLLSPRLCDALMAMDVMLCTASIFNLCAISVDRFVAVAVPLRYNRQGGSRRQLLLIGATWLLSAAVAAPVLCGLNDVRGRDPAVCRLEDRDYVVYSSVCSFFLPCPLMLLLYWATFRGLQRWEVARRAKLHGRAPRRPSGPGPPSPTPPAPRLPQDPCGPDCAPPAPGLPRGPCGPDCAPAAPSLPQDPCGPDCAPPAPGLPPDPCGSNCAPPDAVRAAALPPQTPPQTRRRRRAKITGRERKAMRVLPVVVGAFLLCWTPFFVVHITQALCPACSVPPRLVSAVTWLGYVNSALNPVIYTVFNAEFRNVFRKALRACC
Solution: 8.48

Exercise: Now the same for `CCC(=O)Nc1cc(OC)c(C(=O)N[C@H]2CCN(Cc3ccccc3)C2)cc1Cl`
Solution: 8.82

Exercise: Now the same for `COc1cc(NC(=O)C2CCCC2)c(Cl)cc1C(=O)N[C@H]1CCN(Cc2ccccc2)C1`
Solution: 7.70

Exercise: Now the same for `COc1cc(NC(=O)C2CCC2)c(Cl)cc1C(=O)N[C@@H]1CCN(Cc2ccccc2)C1`
Solution: 8.15

----------
- measured on: Muscarinic acetylcholine receptor M2 (Rattus norvegicus, UniProt P10980)
- Sequence (P10980 whole entry): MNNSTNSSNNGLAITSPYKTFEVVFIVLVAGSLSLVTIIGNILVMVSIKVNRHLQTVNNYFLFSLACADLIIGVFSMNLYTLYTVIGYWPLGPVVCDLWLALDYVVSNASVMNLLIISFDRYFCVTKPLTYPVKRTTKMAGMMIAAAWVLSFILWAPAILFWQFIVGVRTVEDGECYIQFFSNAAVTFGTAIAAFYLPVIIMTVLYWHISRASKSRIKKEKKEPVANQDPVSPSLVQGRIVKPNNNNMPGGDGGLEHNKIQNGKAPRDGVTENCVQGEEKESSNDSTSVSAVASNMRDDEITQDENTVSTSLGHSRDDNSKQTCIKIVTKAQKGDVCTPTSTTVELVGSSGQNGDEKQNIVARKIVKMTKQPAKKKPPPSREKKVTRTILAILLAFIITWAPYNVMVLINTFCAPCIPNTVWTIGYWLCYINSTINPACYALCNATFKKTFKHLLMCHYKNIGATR
property measured: Ki (µM)
Write it as a number; the unit µM goes unstated.

Exercise: I'd like to know its Ki. The compound in question is `COc1cc(NC(=O)C2CC2)c(Cl)cc1C(=O)N[C@H]1CCN(Cc2ccccc2)C1`
Solution: 7.3

----------
- measured on: D(1A) dopamine receptor (Homo sapiens)
- Sequence (P21728 whole entry): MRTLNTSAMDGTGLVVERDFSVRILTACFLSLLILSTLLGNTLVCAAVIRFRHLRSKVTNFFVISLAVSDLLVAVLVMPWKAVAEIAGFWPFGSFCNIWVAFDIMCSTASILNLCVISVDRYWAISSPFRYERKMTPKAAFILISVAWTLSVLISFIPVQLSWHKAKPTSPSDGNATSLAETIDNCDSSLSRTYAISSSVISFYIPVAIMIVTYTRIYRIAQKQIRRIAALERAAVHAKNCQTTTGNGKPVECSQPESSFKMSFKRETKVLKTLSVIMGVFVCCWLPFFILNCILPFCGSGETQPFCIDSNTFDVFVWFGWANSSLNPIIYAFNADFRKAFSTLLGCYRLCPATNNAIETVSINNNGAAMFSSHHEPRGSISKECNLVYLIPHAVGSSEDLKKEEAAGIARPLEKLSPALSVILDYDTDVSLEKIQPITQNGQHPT
- test details: Compound was tested for the Binding affinity against Human cloned Dopamine receptor D1 by Radio ligand ([3H]SCH-23390) binding assay
pKi: −log10 of the molar value.
property measured: pKi

Exercise: I'd like to know its pKi. The molecule in question is `COc1cc(NC(=O)C2CC2)c(Cl)cc1C(=O)N[C@H]1CCN(Cc2ccccc2)C1`
Solution: < 5.00

----------
- measured on: UniProt:P31390
- Sequence (P31390 whole entry): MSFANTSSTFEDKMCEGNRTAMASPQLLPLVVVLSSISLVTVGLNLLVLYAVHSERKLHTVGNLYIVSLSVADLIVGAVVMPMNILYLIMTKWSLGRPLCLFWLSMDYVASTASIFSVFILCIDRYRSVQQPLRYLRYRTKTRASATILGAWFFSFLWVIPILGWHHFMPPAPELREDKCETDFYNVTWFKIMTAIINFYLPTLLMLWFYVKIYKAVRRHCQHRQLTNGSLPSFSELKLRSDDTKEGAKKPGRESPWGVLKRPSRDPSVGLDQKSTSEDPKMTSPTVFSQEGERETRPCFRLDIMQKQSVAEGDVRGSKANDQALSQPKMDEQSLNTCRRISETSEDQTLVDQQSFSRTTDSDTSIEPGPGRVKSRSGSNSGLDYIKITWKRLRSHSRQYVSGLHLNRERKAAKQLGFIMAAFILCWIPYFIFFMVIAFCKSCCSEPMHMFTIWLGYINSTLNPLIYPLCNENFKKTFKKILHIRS
property measured: Ki

Exercise: I'd like to know its Ki. The compound in question is `COc1cc(NC(=O)C2CC2)c(Cl)cc1C(=O)N[C@H]1CCN(Cc2ccccc2)C1`
Solution: > 10 µM

----------
- measured on: D(3) dopamine receptor (Rattus norvegicus)
pKi: −log10 of the molar value.
Note to self: values exactly at 8 are TRUE. So pKi at or above 8 is TRUE, below is FALSE.

Example entries begin here.
{"compound": "COc1cc(NC(=O)C(F)(F)F)c(Cl)cc1C(=O)N[C@H]1CCN(Cc2ccccc2)C1", "answer label": "TRUE"}
{"compound": "COc1cc(NC(=O)C2CCC2)c(Cl)cc1C(=O)N[C@H]1CCN(Cc2ccccc2)C1", "answer label": "FALSE"}
{"compound": "COc1cc(NC(=O)C2CC2)c(Cl)cc1C(=O)N[C@@H]1CCN(Cc2ccccc2)C1", "answer label": "FALSE"}
{"compound": "COc1cc(N)c(Cl)cc1C(=O)N[C@@H]1CCN(Cc2ccccc2)C1", "answer label": "TRUE"}

Exercise: Please check the record COc1cc(NC(=O)C2CC2)c(Cl)cc1C(=O)N[C@H]1CCN(C2C3CC4CC(C3)CC2C4)C1 (stereo not given in full) and state if its pKi is at or above 8.
Solution: TRUE

src = ChEMBL document CHEMBL1129789
